# System: SF268 (Low Grade Glioma);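 note: after 72 h of two-drug dosing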
# assay_method_text: Bliss excess, mean over the matrix (fraction); higher = more synergy
Decision: Bliss excess compared against -0.008; not below it gives rule met, below it gives rule not met.

- compound: "CN(CCO)CC[C@H](CSc1ccccc1)Nc1ccc(S(=O)(=O)NC(=O)c2ccc(N3CCC([C@@H](O)c4ccccc4-c4ccc(Cl)cc4)CC3)cc2)cc1S(=O)(=O)C(F)(F)F [AZD4320] + C=CCn1c(=O)c2cnc(Nc3ccc(N4CCN(C)CC4)cc3)nc2n1-c1cccc(C(C)(C)O)n1 [AZD1775] (first compound max 1 µM, partner max 1 µM)"
  assigned_label: "rule met"
- compound: "C[C@@H](c1ccc2nccn2c1)n1nnc2ncc(-c3cnn(C)c3)nc21 [Savolitinib] + CN(CC[C@H](CSC1=CC=CC=C1)NC2=C(C=C(C=C2)S(=O)(=O)NC(=O)C3=CC=C(C=C3)N4CCC(CC4)[C@H](C5=CC=CC=C5C6=CC=C(C=C6)Cl)O)S(=O)(=O)C(F)(F)F)CCO [AZD4320] (first compound max 1 µM, 7x7, partner max 1 µM)"
  assigned_label: "rule not met"
- compound: "COc1cccc(OCCCN)c1-c1cc(Nc2cnc(C#N)cn2)n[nH]1 [Prexasertib] + C=CCn1c(=O)c2cnc(Nc3ccc(N4CCN(C)CC4)cc3)nc2n1-c1cccc(C(C)(C)O)n1 [AZD1775] (first compound max 1 µM, partner max 1 µM)"
  assigned_label: "rule met"
- compound: "CC(=O)c1c(C)c2cnc(Nc3ccc(N4CCNCC4)cn3)nc2n(C2CCCC2)c1=O [Palbociclib] + CN(CC[C@H](CSC1=CC=CC=C1)NC2=C(C=C(C=C2)S(=O)(=O)NC(=O)C3=CC=C(C=C3)N4CCC(CC4)[C@H](C5=CC=CC=C5C6=CC=C(C=C6)Cl)O)S(=O)(=O)C(F)(F)F)CCO [AZD4320] (first compound max 10 µM, 7x7, partner max 1 µM)"
  assigned_label: "rule not met"
- compound: "CC(=O)Nc1cccc(-n2c(=O)n(C3CC3)c(=O)c3c(Nc4ccc(I)cc4F)n(C)c(=O)c(C)c32)c1 [Trametinib] + Cc1nc(-c2cn3c(n2)-c2ccc(-c4cnn(C(C)(C)C(N)=O)c4)cc2OCC3)n(C(C)C)n1 [Taselisib] (first compound max 1 µM, 7x7, partner max 10 µM)"
  assigned_label: "rule met"
- compound: "COc1cccc(OCCCN)c1-c1cc(Nc2cnc(C#N)cn2)n[nH]1 [Prexasertib] + Cc1cc2ncnn2cc1Nc1ncc2c(n1)n(C1CCOCC1)c(=O)n2C [AZD7648] (first compound max 1 µM, 7x7, partner max 10 µM)"
  assigned_label: "rule met"

Just for reference, the supplement of paper PMC11061612 is where these values come from.
